B1: Retinoic acid receptor beta, residues 85 to 161; numbered along this chain, P10826 (parent)
chain: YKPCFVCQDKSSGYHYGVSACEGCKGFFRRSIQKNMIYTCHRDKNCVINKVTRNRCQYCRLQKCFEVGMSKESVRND

Variants of: B1
test details: abundance fitness (aPCA) (normalised: wild type 0, dead -1); higher = more abundant; growth selection in yeast, the domain comes from the species named
test parameters: Homo sapiens

{"mutation code": "D43L", "abundance fitness": -0.066}
{"mutation code": "N49V", "abundance fitness": -0.546}
{"mutation code": "N35E", "abundance fitness": 0.159}
{"mutation code": "H15A", "abundance fitness": 0.033}
{"mutation code": "Y58C", "abundance fitness": 0.046}
{"mutation code": "C7I", "abundance fitness": -0.806}
{"mutation code": "V18L", "abundance fitness": -0.353}
{"mutation code": "Y1C", "abundance fitness": -0.008}
{"mutation code": "K50D", "abundance fitness": 0.225}
{"mutation code": "V6H", "abundance fitness": -0.748}
{"mutation code": "T52K", "abundance fitness": -0.015}
